Biological target: M1 family aminopeptidase (Plasmodium falciparum (isolate FcB1 / Columbia))
Sequence (O96935 whole entry): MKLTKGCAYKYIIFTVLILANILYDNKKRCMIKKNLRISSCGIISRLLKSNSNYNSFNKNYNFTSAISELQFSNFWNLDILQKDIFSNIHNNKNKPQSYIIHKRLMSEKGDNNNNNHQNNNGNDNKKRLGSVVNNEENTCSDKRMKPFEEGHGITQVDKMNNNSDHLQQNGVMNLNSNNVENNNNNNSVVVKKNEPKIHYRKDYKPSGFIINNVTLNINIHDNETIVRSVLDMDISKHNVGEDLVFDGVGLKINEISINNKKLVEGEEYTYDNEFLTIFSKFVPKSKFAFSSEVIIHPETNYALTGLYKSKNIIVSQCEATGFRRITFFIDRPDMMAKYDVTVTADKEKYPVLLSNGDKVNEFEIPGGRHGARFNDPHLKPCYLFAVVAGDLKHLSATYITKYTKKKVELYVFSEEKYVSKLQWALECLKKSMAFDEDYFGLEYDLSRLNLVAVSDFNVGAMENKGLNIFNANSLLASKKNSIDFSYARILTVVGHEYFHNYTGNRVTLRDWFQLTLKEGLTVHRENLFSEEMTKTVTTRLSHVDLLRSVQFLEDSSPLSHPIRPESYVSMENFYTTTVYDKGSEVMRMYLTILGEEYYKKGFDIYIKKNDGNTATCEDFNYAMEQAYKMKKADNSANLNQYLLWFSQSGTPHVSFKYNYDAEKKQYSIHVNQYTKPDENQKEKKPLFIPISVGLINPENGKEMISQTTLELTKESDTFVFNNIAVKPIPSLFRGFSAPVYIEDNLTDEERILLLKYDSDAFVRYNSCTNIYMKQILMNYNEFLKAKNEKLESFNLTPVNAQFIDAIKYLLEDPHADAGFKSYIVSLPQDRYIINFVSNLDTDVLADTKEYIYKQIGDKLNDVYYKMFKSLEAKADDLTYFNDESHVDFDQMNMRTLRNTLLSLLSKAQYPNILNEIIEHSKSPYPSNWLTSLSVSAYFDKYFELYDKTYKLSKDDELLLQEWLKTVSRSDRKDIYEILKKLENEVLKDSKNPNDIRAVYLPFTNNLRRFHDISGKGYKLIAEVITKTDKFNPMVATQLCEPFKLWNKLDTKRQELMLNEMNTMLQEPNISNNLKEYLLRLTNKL
Assay: P. falciparum M1AAP inhibitors, biochemical, fluorogenic H-Leu-NHMec substrate, 1536-well (AID 1445)
quantity name: pIC50
Would you please state pIC50, meaning minus log10 of the concentration in mol/L, as a bare number?

Reference set (8 entries):
C#CCOCCOCCOCCNc1nc(N2CCN(C(=O)[C@H](Cc3cc4ccccc4[nH]3)n3cc([C@@H](N)C(C)CC)nn3)CC2)nc(N2CCN(C(=O)[C@H](Cc3cc4ccccc4[nH]3)n3cc([C@@H](N)CC(C)C)nn3)CC2)n1 (some centres undefined) [SMR000391064]; 4.26
Cc1ccc(O)c(NC=C2C(=O)c3ccccc3C2=O)c1 [MLS000104939]; 4.14
Clc1ccc(CN=Nc2nnn[nH]2)cc1; 4.03
O=C(O)Cc1sc(N[N-][CH+]c2ccc(-c3ccc(Cl)c([N+](=O)[O-])c3)o2)nc1O [MLS000689975]; 4.27
Cc1c(N2C(=O)C(=O)C(C(=O)c3ccc(Cl)cc3)C2c2ccccc2)c(=O)n(-c2ccccc2)n1C (centres undefined) [MLS000331609]; 4.21
CC(NNC(=O)c1ccccc1O)=C1C(=O)c2ccccc2C1=O [MLS000523164]; 4.89
O=C1Nc2ccccc2SC1C=NCc1ccccc1Cl (centres undefined); 5.25
CCOC(=O)C1C(=O)C(=Cc2ccc(OCC(=O)O)c(OCC)c2)SC1=Nc1ccccc1 (centres undefined); 4.22

Pending molecule:
I'd like to know its pIC50. The molecule in question is CC(=O)Nc1ccc(S(=O)(=O)Oc2cccc(CN=Nc3nc(O)c(CC(=O)O)s3)c2)cc1
4.28

----------
Parameter log10 of IC50: see the listing below.
Target: M1 family aminopeptidase (Plasmodium falciparum (isolate FcB1 / Columbia))
Assay: P. falciparum M1AAP inhibitors, biochemical, fluorogenic H-Leu-NHMec substrate, 1536-well (AID 1445)
// stored as log10 of IC50 expressed in µM

Reference set (3 entries):
CS(=O)(=O)Nc1nc2n(n1)C(c1ccccc1)CC(c1ccc(Br)cc1)=N2 (centres undefined); 1.66
N#C/C(=C\C1C=CC(=O)C([N+](=O)[O-])=C1)c1nc2ccccc2s1 (centres undefined); 1.53
CC1=CC([N+](=O)[O-])=CC(/C=N/NC(=O)C2COc3ccccc3O2)C1=O (centres undefined); 0.48

I'd like to know its log10 of IC50. The molecule in question is C/C(Cl)=C\CN1C(=O)C(=NNC(N)=S)c2ccccc21
1.80

I'd like to know its log10 of IC50. The molecule in question is COc1ccc(-c2c/c(=N\CCCCCC(=O)O)c3cc(C)ccc3o2)cc1
0.86

I'd like to know its log10 of IC50. The molecule in question is O=C(O)c1cccc(-c2ccc(CN=Nc3ccc([N+](=O)[O-])cc3)o2)c1
1.44

I'd like to know its log10 of IC50. The molecule in question is CCOC(=O)C(C=NC(N)=Nc1nc2ccccc2o1)C(=O)OCC
1.90

I'd like to know its log10 of IC50. The molecule in question is COc1ccc(-c2c/c(=N\CCC(=O)O)c3cc(C)ccc3o2)cc1
1.59

I'd like to know its log10 of IC50. The molecule in question is COC1=CC(C=NNC(=O)C(Cc2c[nH]c3ccccc23)NC(=O)OCC(C)C)C=C([N+](=O)[O-])C1=O (centres undefined)
1.22

I'd like to know its log10 of IC50. The molecule in question is C#CCOCCOCCOCCNc1nc(N2CCN(C(=O)C(Cc3cc4ccccc4[nH]3)n3cc(C(N)C(C)CC)nn3)CC2)nc(N2CCN(C(=O)C(Cc3cc4ccccc4[nH]3)n3cc(C(N)C(C)CC)nn3)CC2)n1 (centres undefined)
1.86

I'd like to know its log10 of IC50. The molecule in question is CCc1ccc2oc(-c3ccc(OC)cc3)c/c(=N\c3cccc(C(=O)O)c3)c2c1
1.08

I'd like to know its log10 of IC50. The molecule in question is O=C1NC(=S)NC(=O)C1N=Nc1cc2c(cc1[N+](=O)[O-])OCO2
1.43

I'd like to know its log10 of IC50. The molecule in question is O=C1N=c2ccc(Br)cc2=C1NNc1nnn[nH]1
1.42

I'd like to know its log10 of IC50. The molecule in question is O=C1NC(=S)NC(=O)C1N=Nc1ccc(-c2ccccc2)cc1[N+](=O)[O-]
1.02

I'd like to know its log10 of IC50. The molecule in question is CCOC1=CC(/C=N/NC(=O)c2cccs2)C=C([N+](=O)[O-])C1=O (centres undefined)
2.01

I'd like to know its log10 of IC50. The molecule in question is O=C(Cn1cnc([N+](=O)[O-])n1)N/N=C/C1C=C(Cl)C=CC1=O (centres undefined)
1.12

I'd like to know its log10 of IC50. The molecule in question is COC(=O)c1ccc(COc2ccccc2CN=Nc2cccc(C(=O)O)c2)cc1
1.67

I'd like to know its log10 of IC50. The molecule in question is CC(N=Nc1nc(C(=O)O)cs1)c1ccccc1 (centres undefined)
1.53

I'd like to know its log10 of IC50. The molecule in question is COC1=CC(/C=C(\C#N)c2nc3ccc(C)cc3[nH]2)C=C([N+](=O)[O-])C1=O (centres undefined)
1.21

----------
Molecular target: M1 family aminopeptidase (Plasmodium falciparum (isolate FcB1 / Columbia))
Assay: P. falciparum M1AAP inhibitors, biochemical, fluorogenic H-Leu-NHMec substrate, 1536-well (AID 1445)
pIC50: −log10 of the molar value.
Note to self: values exactly at 5 are condition met. So pIC50 at or above 5 is condition met, below is condition not met.

Some entries whose results are on file:
O=[N+]([O-])c1cc(Br)c(O)c(CN=Nc2nnnn2-c2cccc3ccccc23)c1; condition met
Oc1ccc(O)n1-c1nc2n(n1)C(c1ccccc1)CC(c1ccc(Br)cc1)=N2 (stereo not given); condition not met
CCOc1cc(C2C3=C(CCCC3=O)N=C3CCCC(=O)C32)cc(Cl)c1O (stereo not given); condition not met
COc1cc(C=Nn2c(O)csc2=S)cc(Br)c1O; condition not met

hey, is pIC50 for this one >= 5? CCOC(=O)C1C(=O)C(=Cc2ccc(OCC(=O)O)c(OCC)c2)SC1=Nc1ccc(OC)cc1 (stereo not given)
condition not met

hey, is pIC50 for this one >= 5? N#CC(=NNc1ccc(Cl)cc1)C(=O)c1ccccc1
condition not met

hey, is pIC50 for this one >= 5? CN1CCN(CC2=c3oc(=O)c(=C4C=CCC=N4)cc3C=CC2=O)CC1
condition not met

hey, is pIC50 for this one >= 5? Cc1ccc(-c2csc(-n3[nH]c(C)c(N=Nc4ccccc4O)c3=O)n2)cc1
condition met

hey, is pIC50 for this one >= 5? CCOc1ccc(-n2c(O)c(CN=Nc3nnc(C)c(=O)[nH]3)c3ccccc3c2=O)cc1
condition not met

// data source = BindingDB's records for doi:10.7270/Q27H1H0J
